test system: SF-268; experiment: NCI tumour cell line growth inhibition, 48 h
Calls of active or inactive are those of the source. Rule as the data show it: active = GI50 up to about 1.1 µM and inactive = higher.
Outcome measure: GI50

In: For the record N#CC(Cl)CS(=O)(=O)c1ccccc1 (configuration not stated) , what value of GI50 is listed for SF-268?
Out: 11 µM (inactive)

In: // repeat for "COc1ccc(/C=C/C(C(=O)O)C(=O)O)cc1" and report
Out: 67.5 µM (inactive)

In: Then what about the compound c1ccc2nc(CCC3CCCCN3)ccc2c1 (configuration not stated) ?
Out: > 100 µM (inactive)

In: What do you have for "C=CCn1c(-c2ccc(-c3cs/c(=N\N=O)n3CC=C)cc2)cs/c1=N\N=O" ?
Out: > 100 µM (inactive)

In: Try this compound next: "Nc1nc(N)c2c(-c3ccccc3)ccnc2n1"
Out: > 100 µM (inactive)

In: Also "COc1ccc(-c2nnc(-c3ccncc3)o2)cc1" ?
Out: > 100 µM (inactive)

In: And the next one, "Brc1cc2nn(-c3ccccc3)nc2c2nonc12" ?
Out: > 100 µM (inactive)

====

tested on: UO-31; test: NCI tumour cell line growth inhibition, 48 h
Calls of active or inactive are those of the source. Cut-off read from the data, not from the text of the source: active = GI50 up to about 1.1 µM and inactive = higher.
Hi there, use one of these labels in your reply, thanks! T (active), F (inactive)

* COc1cc(Cc2ccc3c(c2C#N)N(C)c2ccccc2S3)cc(OC)c1OC | F
* CN(C)C(n1cc2c(c1)-c1ccc(Cl)cc1C(c1ccccc1F)=NC2)n1cc2c(c1)-c1ccc(Cl)cc1C(c1ccccc1F)=NC2 | F
* CC(=O)O[C@@H]1CC[C@@]2(C)C(=O)C34C[C@@]5(C)C([C@@H](C)CCCC(C)C)CCC5(C)[C@](O)(O3)C(=O)[C@H]4C2C1(C)C (some centres not stated) | F
* COC(=O)/C=C(/C)n1nc2ccccc2n1 | F
* COc1ccc(C2ON(c3ccccn3)CC=C2C)cc1 (configuration not stated) | F
* c1ccc(CCN2CCOCC2)nc1 | F
* CCC(=O)O[C@H]1CC[C@H]2[C@@H]3CCC4=CC(=O)C=C[C@]4(O)[C@H]3CC[C@]12C | F
* CC(O)c1cc2c(s1)C(=O)c1scc(C(C)O)c1C2=O (configuration not stated) | T

In: Called result for "Cc1cc2cc3ccccc3cc2c(=O)[nH]1"
Out: F

In: For "Cc1ccc(NC(=O)CC(=O)n2nc(-c3ccccc3)c(/N=N/c3ccc(Cl)cc3)c2-c2ccccc2)cc1" then?
Out: F

In: "C[C@@H]1CCC[C@]2(C)O[C@H]2CC[C@@](C)(O)[C@@H]2CC3=C(CO)C(=O)O[C@H]3[C@H]1O2" ?
Out: F

In: Field entry: Cc1cc(Br)ccc1/N=N/C1C(=O)ON=C1c1ccccc1 (configuration not stated)
Out: F

In: Follow-up item: O=S1(=O)NC2CCC3NS(=O)(=O)NC4CCC(N1)N4S(=O)(=O)N23 (configuration not stated)
Out: F

In: Also need "N#CC(C#N)=C(N)/C(C#N)=C\c1ccnc2ccccc12" , thanks.
Out: F

====

tested on: SK-MEL-5; test: NCI tumour cell line growth inhibition, 48 h
Activity calls are given as the source filed them. Rule as the data show it: active = GI50 up to about 1.1 µM and inactive = higher.
Log the outcome using a class from label 1 for active, label 0 for inactive

* N#Cc1ccc(Nc2cnc3ccc(N)cc3n2)cc1 | label 0
* COC(=O)c1c(O)ccc2c1c1c(n2Cc2ccc(OC)cc2)C(=O)c2ccccc2C1 | label 0
* Cc1cc(Cl)ccc1OCC(=O)Nc1nc(N)nc(N)n1 | label 0
* CC(C)(C)c1cc2c(c(C(C)(C)C)c1O)CC(=O)O2 | label 0
* COc1ccc(C(C)NNC(=O)c2ccncc2)cc1OC (stereo unspecified) | label 0

Here is the next item to consider.
In: Short answer needed: outcome of this test for CC(O)c1cc2c(s1)C(=O)c1scc(C(C)O)c1C2=O (stereo unspecified) ?
Out: label 1

====

test system: SF-268; assay: NCI tumour cell line growth inhibition, 48 h
Active and inactive are the calls of the source. Rule as the data show it: active = GI50 up to about 1.1 µM and inactive = higher.
Measured GI50 values are reported for all entries that follow.

• COc1cc(C2SCC(=O)N2c2ccc(-n3c(-c4ccccc4)nc4ccccc4c3=O)cc2)ccc1O (centres undefined) = 32.4 µM (inactive)
• CCOC(=O)C1CCC(=O)N1C(=O)c1ccc(Cl)cc1 (centres undefined) = > 100 µM (inactive)
• C[C@@H]1CC[C@]2(C(=O)O)CC[C@]3(C)C(=CC[C@@H]4[C@@]5(C)CC[C@H](O)C(C)(C)[C@@H]5CC[C@]43C)[C@@H]2[C@]1(C)O = 17.1 µM (inactive)
• O=C1c2ccccc2C(=O)c2c1nc1ccccc1c2-c1cncc(-c2c3c(nc4ccccc24)C(=O)c2ccccc2C3=O)c1 = 6.08 µM (inactive)
• O=P(O)(O)CN1CCNCCN(CP(=O)(O)O)CC1 = 75.2 µM (inactive)
• CCCCCCOc1ccc(NC2=C(Cl)C(=O)c3cccnc3C2=O)cc1 = 2.11 µM (inactive)
• C=C1C(=O)OC2CC(C)C(/C=C/C(C)=O)=CCC12 (centres undefined) = > 100 µM (inactive)
• COc1cc([N+](=O)[O-])ccc1NC(=O)c1cccc([N+](=O)[O-])c1O = 32.5 µM (inactive)

Turning now to a further record.
In: Given the compound "CC(C)(/N=N/C(C)(C)C(=N)N)C(=N)N" , what is its reported GI50?
Out: > 100 µM (inactive)

====

system: SF-295; assay: NCI tumour cell line growth inhibition, 48 h
Calls of active or inactive are those of the source. Rule as the data show it: active = GI50 up to about 1.1 µM and inactive = higher.
Your reply should match one of these outcome classes. active, inactive

- CCCCCCCCCC(=O)N[C@H]1CCc2cc(OC)c(OC)c(OC)c2-c2ccc(SC)c(=O)cc21: active
- Cc1cccc(C)c1NC(=O)CCCC(=O)C(C#N)c1ccc(Cl)cc1 (configuration not stated): inactive
- C=CCN1CC2CN=NC2(C#N)C1 (configuration not stated): inactive
- CCCCCCCCCCCCc1ccsc1-c1ccc(-c2ccc(-c3sc(-c4cc(CCCCCCCCCCCC)c(-c5ccc(-c6ccc(-c7sccc7CCCCCCCCCCCC)s6)s5)s4)cc3CCCCCCCCCCCC)s2)s1: inactive
- CCOC(=O)/C=C(/C(=O)OCC)n1cc(C)c(=O)[nH]c1=O: inactive

In: Look up the recorded call for "S=C(S)NCNC(=S)S" in this test.
Out: inactive

In: Again, but for "N#CCCOCN(CO)c1nc(N(CO)COCCC#N)nc(N(CO)COCCC#N)n1"
Out: inactive

In: Now consider "N#Cc1cc([N+](=O)[O-])ccc1NC(=O)C(=O)Nn1c(S)nc2ccccc2c1=O" and answer again.
Out: inactive

====

system: SK-MEL-2; test: NCI tumour cell line growth inhibition, 48 h
Calls of active or inactive are those of the source. No stated cut-off is given here; in the data, active = GI50 up to about 1.1 µM and inactive = higher.
Write down the outcome that applies. Available outcomes: true = active, false = inactive

Below, 2 molecules whose answers are already recorded.
• CCOC(=O)C(C)(C)Oc1ccc2c(-c3ccc(Cl)cc3)c(-c3ccc(Cl)cc3)c(=O)oc2c1 = false
• CCn1c2ccccc2c2cc(Nc3cc(C)[nH]c(=O)n3)ccc21 = false

In: Hi, sorry to bother you, what did the test record for "CC(C)(C)c1cc2c(c(C(C)(C)C)c1O)CC(=O)O2" ?
Out: false

In: Can you check "O=C(Nc1ccc2nc(-c3ccccc3)cn2c1)Oc1ccccc1" next?
Out: false

In: What about this molecule? "CN(C)CCNC(=O)c1cccc2c1nc(-c1ccc(F)cc1)c1ccccc12"
Out: false

In: // same read-out, input: "Cc1cc(C)c2c(O)cc(-c3ccc4ccccc4c3)nc2n1"
Out: false

In: What about this molecule? CC[C@]12C=CCN3CCC4(c5cc([C@@]6(C(=O)OC)CC7CN(CCc8c6[nH]c6ccccc86)C[C@@H]6CCCC[C@H]76)c(OC)cc5N(C)C4[C@](O)(C(=O)OC)C1OC(C)=O)[C@@H]32 (stereo not given in full)
Out: true

In: Next entry: "C[C@@H]1CCC[C@]2(C)O[C@H]2CC[C@@](C)(O)[C@@H]2CC3=C(CO)C(=O)O[C@H]3[C@H]1O2"
Out: false

In: Also Cc1ccc(S(=O)(=O)OC(C=O)C(O)C(O)COC(c2ccccc2)(c2ccccc2)c2ccccc2)cc1 (stereo not given) , if possible.
Out: false

In: Now this one: "Cc1ccc(NC(=O)c2ccc(OP(=O)(O)Nc3ccc(C)cc3)cc2)cc1"
Out: false

In: What do you have for CC1=NN(c2ccccc2)C(=O)C1C(=O)C(=O)Nc1ccc(C)cc1C (stereo not given) ?
Out: false

In: Moving on to "Clc1ccc(-c2nnc(-c3nn(-c4ccccc4)c4nc5ccccc5nc34)o2)cc1"
Out: false

In: Next: "Cc1ccc2nc(/C=N/c3ccc(Cl)cc3)cc(C)c2c1"
Out: false

In: O=C(Nc1cccc(O)c1)C(=O)C(C(=O)c1ccc(Cl)c(Cl)c1)C1OC(=O)c2ccccc21 (stereo not given) ?
Out: false

In: Follow-up item: Nc1nc(O)c2c(ncn2CC(O)CO)n1 (stereo not given)
Out: false
